- Target or test system: human FPR1 (Homo sapiens)
- Sequence (P21462 whole entry): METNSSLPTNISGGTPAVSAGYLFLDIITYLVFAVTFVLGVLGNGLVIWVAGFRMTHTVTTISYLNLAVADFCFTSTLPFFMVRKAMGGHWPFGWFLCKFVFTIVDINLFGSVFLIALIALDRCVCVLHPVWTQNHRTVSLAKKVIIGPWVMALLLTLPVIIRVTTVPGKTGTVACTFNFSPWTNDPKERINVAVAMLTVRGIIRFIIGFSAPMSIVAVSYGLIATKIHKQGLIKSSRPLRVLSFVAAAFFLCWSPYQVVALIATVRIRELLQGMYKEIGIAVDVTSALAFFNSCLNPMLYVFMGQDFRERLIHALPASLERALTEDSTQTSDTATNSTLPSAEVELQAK
- Assay details: FPR1 cyclic adenosine monophosphate (cAMP) assay
- Experimental parameters: CHO cells overexpressing human FPR1; forskolin 10 μM; inhibition of cAMP production; HTRF; read-out: hFPR1 cAMP2 EC50
# strict inequality: EC50 < 2 µM yields label 1, everything else yields label 0

Use the examples below as a reference point.
# Compound, Class label
rows = [
    ("COc1cc(F)c(-c2c(NC(=O)c3ccc(OC(F)F)cc3)c(=O)n(-c3nc(C(F)(F)F)ccc3OCC3CCOC3)n2C)c(F)c1 (centres unmarked) [Example 370]", "label 0"),
    ("COc1ccc(-c2c(NC(=O)c3ccc(OC(F)F)cc3)c(=O)n(-c3nc(N4CCC(C)(O)CC4)ccc3C(F)(F)F)n2C)c(F)c1", "label 1"),
    ("CCc1cccc(-n2c(=O)c(NC(=O)c3ccc(OC(F)F)cc3)c(-c3c(F)cc(OC)cc3F)n2C)n1", "label 0"),
    ("COc1cc(N2C[C@H]3C[C@@H]2CN3C)nc(-n2c(=O)c(NC(=O)c3ccc(OC(F)F)cc3)c(-c3c(F)cc(OC)cc3F)n2C)c1", "label 0"),
    ("COc1cc(OCC2CCS(=O)(=O)CC2)nc(-n2c(=O)c(NC(=O)c3ccc(OC(F)F)cc3)c(-c3c(F)cc(OC)cc3F)n2C)c1", "label 0"),
    ("COc1cc(F)c(-c2c(NC(=O)c3ccc(OC(F)F)cc3)c(=O)n(-c3nc(C(F)(F)F)ccc3OCC3(C)COC3)n2C)c(F)c1", "label 0"),
]

// next entry
## Input A record lists `COc1cc(C2CC2)nc(-n2c(=O)c(NC(=O)c3ccc(OC(F)F)cc3)c(-c3c(F)cc(OC)cc3F)n2C)c1` . Is its EC50 below 2 µM?
## Output label 0
